Biological target: T1, human Trop-2 (on the surface of human cell lines) (human, UniProt P09758 27-323)
T1 sequence: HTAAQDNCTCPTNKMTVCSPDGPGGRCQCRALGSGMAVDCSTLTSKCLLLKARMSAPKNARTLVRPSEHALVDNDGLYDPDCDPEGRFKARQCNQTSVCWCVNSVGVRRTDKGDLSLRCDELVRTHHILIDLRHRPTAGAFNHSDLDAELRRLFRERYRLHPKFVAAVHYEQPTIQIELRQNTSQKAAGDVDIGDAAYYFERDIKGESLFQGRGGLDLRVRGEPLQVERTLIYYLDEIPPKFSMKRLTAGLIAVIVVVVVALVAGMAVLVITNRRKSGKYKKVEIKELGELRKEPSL
Test: cell-based or functional assay
This listing pairs binders with measured ADCC, PBMC killing (LDH), H322, Maximum killing (%).
quantity-kind: ADCC, PBMC killing (LDH), H322, Maximum killing (%)

binder: ch-Ab21 (antibody, human IgG1, kappa, V domains shown, Mouse VH/VL on human IgG1 and human kappa constant regions; also called chimeric antibody of Ab21) VH: EVQLKQSGPGLVQPSQSLSITCTVSGFSLRNYGVHWVRQSPGKGLEWLGVIWSSGTTDYNAAFISRLSITKDNSKSQVFFKMNSLQVDDTAIYNCARDGDYDYYTMDYWGQGTSVTVSS VL: AIVLTQSPASLAVSLGQRATISCRASKSVSTSAYSYIHWYQQKPGQPPKLLIYLTSNLESGVPARFSGSGSGTDFTLNIHPVEEEDAATYYCQHSRELPYTFGGGTKLEIKR
result: 54%

binder: hz-Ab2-1.2 (antibody, human IgG1, kappa, V domains shown, Humanized antibody) VH: EVQLVESGPGLIQPGGSLRLSCAVSGFSLTYYGIDWVRQPPGKGLEWVGVIWGSGNTKYNYALKSRLTISKDNSKSTLYLQMNSLRAEDTAVYYCARFYEGFAYWGQGTLVTVSS VL: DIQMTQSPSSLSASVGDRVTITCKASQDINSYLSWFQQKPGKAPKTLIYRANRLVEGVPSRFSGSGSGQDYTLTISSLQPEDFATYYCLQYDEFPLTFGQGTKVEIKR
result: 48.4%
